- assay_target: rat adrenergic α1A receptor (Rattus norvegicus)
- Construct: obtained from Wistar Rat submaxillary glands; from tissue; host or cells: Wistar rat submaxillary glands
- Sequence (P43140 1-466): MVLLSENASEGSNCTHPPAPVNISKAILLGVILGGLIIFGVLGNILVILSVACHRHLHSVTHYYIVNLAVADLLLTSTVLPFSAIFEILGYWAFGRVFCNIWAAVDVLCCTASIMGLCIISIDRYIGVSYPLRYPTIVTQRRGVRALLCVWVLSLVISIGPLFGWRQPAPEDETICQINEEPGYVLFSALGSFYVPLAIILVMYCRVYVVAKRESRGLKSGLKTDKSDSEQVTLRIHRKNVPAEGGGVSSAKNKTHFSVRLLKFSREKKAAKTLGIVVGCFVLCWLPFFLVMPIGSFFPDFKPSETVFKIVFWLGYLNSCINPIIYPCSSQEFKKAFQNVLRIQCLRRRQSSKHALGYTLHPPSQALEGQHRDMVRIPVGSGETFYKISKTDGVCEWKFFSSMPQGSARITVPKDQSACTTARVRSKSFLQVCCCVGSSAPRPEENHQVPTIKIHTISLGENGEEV
- measurement_protocol: Adrenergic α1A radioligand binding ([3H]Prozosin)
- stated_conditions: read-out: Adrenergic α1A, inhibition of ligand binding (1 μM)
- Method: To evaluate in radioligand binding assays the activity of compounds of the invention, rat adrenergic α1A receptor obtained from Wistar Rat submaxillary glands (Michel, A. D. et al., Br. J. Pharmacol. 98:883, 1989) in a modified Tris-HCl buffer (50 mM Tris-HCl buffer, pH 7.4, 0.5 mM EDTA) was used. […] Receptor proteins were filtered and washed, the filters were then counted to determine [^3H]Prozosin specifically bound. […]
observed_property: inhibition at 1 µM (%)
Write the value in % as a bare number.

[[record]]
molecule = "Cc1ccc2c(c1)c1c(n2CCc2ccccc2)CC2CCC1N2C (stereo not shown) [Compound 2]"
readout_unit = "%"
value_measured = 98

[[record]]
molecule = "CN1C2CCC1c1c(n(CCc3ccc(F)cc3)c3ccc(Cl)cc13)C2 (stereo not shown) [Compound 57]"
readout_unit = "%"
value_measured = 90

[[record]]
molecule = "CN1C2CCC1c1c(n(CCc3ccc(Cl)cc3)c3ccc(Cl)cc13)C2 (stereo not shown) [Compound 58]"
readout_unit = "%"
value_measured = 89


Attention now shifts to the item below.
Give inhibition at 1 µM; test system rat adrenergic α1A receptor (Rattus norvegicus); molecule Cc1ccc2c(c1)c1c(n2CCc2ccccc2)CC2CCCC1N2C (stereo not shown) [Compound 56]
94
